Entries and their refractive index
experiment: refractive index (Na D-line) (dimensionless); details: 298.2 K; 101.33 kPa; Liquid; Standard Abbe refractometry
Field format: numeric only.

Recorded results for 3 compounds are shown here.
CCCCCO
1.4078
CCCCO
1.3972
CCC(C)O (configuration not stated)
1.394

QUERY: Please give measured refractive index of the following entry: O
RESULT: 1.3325

QUERY: Please give measured refractive index of the following entry: CCCCCCCO
RESULT: 1.4224

QUERY: Please give measured refractive index of the following entry: CCCCCCO
RESULT: 1.416

QUERY: Please give measured refractive index of the following entry: CC(O)C(=O)O (configuration not stated) [2-hydroxypropanoic acid]
RESULT: 1.4243

###

details: 298.2 K; 101.33 kPa; Liquid; Vibrating tube method
Entries and their mass density
Express the result in kg/m3 but write the number alone.

Recorded results for 5 compounds are shown here.
CCCCO
805.877
CC(O)C(=O)O (stereo unspecified) [2-hydroxypropanoic acid]
1199.91
CCCCCO
811.288
CCC(C)O (stereo unspecified)
802.362
CCCCCCO
815.167

# ---- query compound ----
QUERY: Please give measured mass density of the following entry: CCCCCCCO
RESULT: 818.915
